test: Mouse plasma pharmacokinetics after oral dose; type: in vivo, male C57BL/6 mice; conditions: male, C57BL/6, mouse, po; plasma, prodrug, p.o. 10 mg/kg
observed_property: Tmax at 24 h (h)
Please reply with the bare figure in h and do not write the unit itself.

INPUT: Endpoint output: Tmax at 24 h of C[C@H](Cn1cnc2c(N)ncnc21)OCP(=O)(O)OCCCSCCCCCCCCCCCCC1CCCCC1.N [16h] . Value?
OUTPUT: 2

---

assay: Mouse plasma pharmacokinetics after intravenous dose; format: in vivo, male C57BL/6 mice; conditions: male, C57BL/6, mouse, iv, i.v. 3 mg/kg, 2 h, read-out: mean prodrug concentration in plasma
observed_property: concentration at 2 h (ng/mL)
Expressed in ng/mL, but write only the number.

As a guide, the following entries are already answered.
INSERT INTO measurements (compound, reported_measurement) VALUES
  ('C[C@H](Cn1cnc2c(N)ncnc21)OCP(=O)(O)OCCCSCCCCCCCCCCCCC1CCCCC1.N [16h]', 17.4),
  ('C[C@H](Cn1cnc2c(N)ncnc21)OCP(=O)(O)OCCCSCCCCCCCCCCCCc1ccc(F)cc1.N [16g]', 21.6);

INPUT: // query concentration at 2 h value for entry CCCCCCCCCCCCCCCCSCCCOP(=O)(O)CO[C@H](C)Cn1cnc2c(N)ncnc21.N
OUTPUT: 8.68
